// provenance: patent US10881623B2

These records show pIC50 for α-glucosidase (Saccharomyces cerevisiae, UniProt P53341).
pIC50: −log10 of the molar value.
result-type: pIC50

molecule="Cc1cc(O)c(C(C)C)cc1O [Thymohydroquinone, thymohydroquinone]" reported_measurement=3.36
molecule="CC1=CC(=O)C(C(C)C)=CC1=O [Thymoquinone, thymoquinone, reference compound]" reported_measurement=2.61
